test system: Saccharomyces cerevisiae; test: Inhibition of binding of pea lectins to yeast mannan by compound was measured using peroxidase-labeled lectin assay, activity expressed relative to 2-Hydroxymethyl-6-methoxy-tetrahydro-pyran-3,4,5-triol
Label not fulfilled if Relative potency falls below 3; label fulfilled in every other case.

Solved cases (5 shown):
Form field: Relative potency at least 3? Entry: "O=[N+]([O-])c1ccc(O[C@H]2O[C@H](CO)[C@@H](O)[C@H](O)[C@H]2O)cc1" not fulfilled

Assess whether reported Relative potency for "C=CCO[C@H]1O[C@@H](CO)[C@@H](O)[C@H](O)[C@H]1O" sits at 3 or higher. fulfilled

Quick check: does "O=C(CCCCC/N=C(\S)Nc1ccc(O[C@H]2O[C@@H](CO)[C@@H](O)[C@H](O)[C@H]2O)cc1)Nc1cc(NC(=O)CCCCC/N=C(\S)Nc2ccc(O[C@H]3O[C@@H](CO)[C@@H](O)[C@H](O)[C@H]3O)cc2)cc(C(=O)O)c1" have Relative potency greater than or equal to 3? fulfilled

hey, is Relative potency for this one >= 3? "O=C(O)c1cc(N/C(S)=N/CCSCCCO[C@H]2O[C@@H](CO)[C@@H](O)[C@H](O)[C@H]2O)cc(N/C(S)=N/CCSCCCO[C@H]2O[C@@H](CO)[C@@H](O)[C@H](O)[C@H]2O)c1" fulfilled

Evaluate "CO[C@H]1O[C@H](CO)[C@@H](O)[C@H](O)[C@H]1O" : Relative potency at minimum 3? not fulfilled

Please examine the following record next.
Can "COC(=O)c1cc(N/C(S)=N/CCSCCCO[C@H]2O[C@@H](CO)[C@@H](O)[C@H](O)[C@H]2O)cc(N/C(S)=N/CCSCCCO[C@H]2O[C@@H](CO)[C@@H](O)[C@H](O)[C@H]2O)c1" be said to have Relative potency at or above 3? fulfilled

====

test system: Saccharomyces cerevisiae; assay: Inhibition of binding of concanavalin A to yeast mannan by compound was measured using peroxidase-labeled lectin assay, expressed relative to 2-Hydroxymethyl-6-methoxy-tetrahydro-pyran-3,4,5-triol
parameter measured: Relative potency
Answers are plain numbers.

Check out these entries, answers already filled in.
# return recorded Relative potency for entry "O=C(O)c1cc(N/C(S)=N/CCSCCCO[C@H]2O[C@@H](CO)[C@@H](O)[C@H](O)[C@H]2O)cc(N/C(S)=N/CCSCCCO[C@H]2O[C@@H](CO)[C@@H](O)[C@H](O)[C@H]2O)c1" 30.3

Give Relative potency for the following compound: "C=CCO[C@H]1O[C@@H](CO)[C@@H](O)[C@H](O)[C@H]1O" 3.5

# next compound below
Input "CO[C@H]1O[C@H](CO)[C@@H](O)[C@H](O)[C@H]1O" , output reported Relative potency. 1

====

Would you mind telling me the reported IC50 of each entry?
test: Inhibition of binding of concanavalin A to yeast mannan by compound was measured using peroxidase-labeled lectin assay,; set-up: species or system Saccharomyces cerevisiae
One number for each entry, in µM.

Consider the reported IC50 for these compounds:
Quick one: give measured IC50 for "O=C(CCCCC/N=C(\S)Nc1ccc(O[C@H]2O[C@@H](CO)[C@@H](O)[C@H](O)[C@H]2O)cc1)Nc1cc(NC(=O)CCCCC/N=C(\S)Nc2ccc(O[C@H]3O[C@@H](CO)[C@@H](O)[C@H](O)[C@H]3O)cc2)cc(C(=O)O)c1" 36.8

Output IC50 of "O=[N+]([O-])c1ccc(O[C@H]2O[C@H](CO)[C@@H](O)[C@H](O)[C@H]2O)cc1" 106

New cases:
For "CO[C@H]1O[C@H](CO)[C@@H](O)[C@H](O)[C@H]1O" , write its IC50. 924

====

test system: Saccharomyces cerevisiae; experiment: Inhibition of binding of concanavalin A to yeast mannan by compound was measured using peroxidase-labeled lectin assay, expressed relative to 2-Hydroxymethyl-6-methoxy-tetrahydro-pyran-3,4,5-triol
parameter measured: Relative potency
Answers are plain numbers.

Indicate its recorded Relative potency; the molecule in question is "O=[N+]([O-])c1ccc(O[C@H]2O[C@H](CO)[C@@H](O)[C@H](O)[C@H]2O)cc1" 8.7

Give reported Relative potency value for "COC(=O)c1cc(N/C(S)=N/CCSCCCO[C@H]2O[C@@H](CO)[C@@H](O)[C@H](O)[C@H]2O)cc(N/C(S)=N/CCSCCCO[C@H]2O[C@@H](CO)[C@@H](O)[C@H](O)[C@H]2O)c1" 138

Okay, now this molecule:
State, in one line, measured Relative potency of "O=C(CCCCC/N=C(\S)Nc1ccc(O[C@H]2O[C@@H](CO)[C@@H](O)[C@H](O)[C@H]2O)cc1)Nc1cc(NC(=O)CCCCC/N=C(\S)Nc2ccc(O[C@H]3O[C@@H](CO)[C@@H](O)[C@H](O)[C@H]3O)cc2)cc(C(=O)O)c1" 25

====

test: Inhibition of binding of concanavalin A to yeast mannan by compound was measured using peroxidase-labeled lectin assay,; design: species or system Saccharomyces cerevisiae
Exercise: for every item that follows, state its recorded pIC50.
One number for each entry, as −log10 of the molar value.

Check out these entries, answers already filled in.
Let me know recorded pIC50 for "O=C(O)c1cc(N/C(S)=N/CCSCCCO[C@H]2O[C@@H](CO)[C@@H](O)[C@H](O)[C@H]2O)cc(N/C(S)=N/CCSCCCO[C@H]2O[C@@H](CO)[C@@H](O)[C@H](O)[C@H]2O)c1" , thanks. 4.52

Output measured pIC50 for this item: "C=CCO[C@H]1O[C@@H](CO)[C@@H](O)[C@H](O)[C@H]1O" 3.58

Next up:
For "COC(=O)c1cc(N/C(S)=N/CCSCCCO[C@H]2O[C@@H](CO)[C@@H](O)[C@H](O)[C@H]2O)cc(N/C(S)=N/CCSCCCO[C@H]2O[C@@H](CO)[C@@H](O)[C@H](O)[C@H]2O)c1" , write its pIC50. 5.17

====

Hi there, I'd appreciate the recorded pIC50 for every entry that follows.
test: Inhibition of binding of pea lectins to yeast mannan by compound was measured using peroxidase-labeled lectin assay; set-up: species or system Saccharomyces cerevisiae
Answers are plain numbers, as −log10 of the molar value.

List the reported pIC50 of each molecule below.
1. C=CCO[C@H]1O[C@@H](CO)[C@@H](O)[C@H](O)[C@H]1O
2. COC(=O)c1cc(N/C(S)=N/CCSCCCO[C@H]2O[C@@H](CO)[C@@H](O)[C@H](O)[C@H]2O)cc(N/C(S)=N/CCSCCCO[C@H]2O[C@@H](CO)[C@@H](O)[C@H](O)[C@H]2O)c1
3. O=C(O)c1cc(N/C(S)=N/CCSCCCO[C@H]2O[C@@H](CO)[C@@H](O)[C@H](O)[C@H]2O)cc(N/C(S)=N/CCSCCCO[C@H]2O[C@@H](CO)[C@@H](O)[C@H](O)[C@H]2O)c1
4. CO[C@H]1O[C@H](CO)[C@@H](O)[C@H](O)[C@H]1O
5. O=C(CCCCC/N=C(\S)Nc1ccc(O[C@H]2O[C@@H](CO)[C@@H](O)[C@H](O)[C@H]2O)cc1)Nc1cc(NC(=O)CCCCC/N=C(\S)Nc2ccc(O[C@H]3O[C@@H](CO)[C@@H](O)[C@H](O)[C@H]3O)cc2)cc(C(=O)O)c1

1: 3.03; 2: 3.89; 3: 3.73; 4: 2.41; 5: 3.24
